# Test system: β2AR
# study-conditions: ΔΔlog(Emax/EC50) relative to reference formoterol; from peak responses
The label true (1) is reserved for log bias factor (mGs/Arr2) strictly under 0.5; false (0) covers values equal to or above it.

Item CC(Cc1ccc(O)cc1)NCC(O)c1cc(O)cc(O)c1 (stereo not drawn) : log bias factor (mGs/Arr2) beneath 0.5, strictly?
true (1)

Item OCc1cc(C(O)CNCCCCCCOCCCCc2ccccc2)ccc1O (stereo not drawn) : log bias factor (mGs/Arr2) beneath 0.5, strictly?
false (0)

Item CCC(NC(C)C)C(O)c1ccc(O)c(O)c1 (stereo not drawn) : log bias factor (mGs/Arr2) beneath 0.5, strictly?
false (0)

Item COc1ccc(CC(C)NCC(O)c2ccc(O)c(NC=O)c2)cc1 (stereo not drawn) : log bias factor (mGs/Arr2) beneath 0.5, strictly?
true (1)

Item CC(C)(C)NCC(O)c1ccc(O)c(CO)c1 (stereo not drawn) : log bias factor (mGs/Arr2) beneath 0.5, strictly?
false (0)

Item CC(C)NCC(O)c1ccc(O)c(O)c1 (stereo not drawn) : log bias factor (mGs/Arr2) beneath 0.5, strictly?
true (1)
